Tested on: Plasmodium berghei
testMethodNotes: Screen against P. berghei liver stage (PbLuc), transformed with Luciferase, at 10uM
Type: functional, HepG2
measurementParameters: tested at 10 uM
In all, about 69,000 compounds went through this assay and about 8,600 (12%) showed an effect of 50% or more. For the sample, strong results were picked, then their nearest neighbours and some compounds at random.
metric: INHIBITION (%)
Your answer is read as %, so omit the unit and give the number.

These recorded examples may help you get a feel for the data.
compound: CC(C)(C(=O)NCC1CCN(Cc2cccnc2)C1)c1ccccc1 (stereo unspecified)
unitAbbreviation: %
INHIBITION: 6.66

compound: O=C(NCCCN1CCOCC1)c1ccn(COc2ccccc2)n1
unitAbbreviation: %
INHIBITION: -8.07

compound: COc1ncc(CN2CCC3(CCNC(=O)CC3)CC2)cn1
unitAbbreviation: %
INHIBITION: 39.5

compound: CCC(Oc1ccccc1)c1nn2c(CN(CC)CC)nnc2s1 (stereo unspecified)
unitAbbreviation: %
INHIBITION: -31.7

compound: CC(C)c1nc(CN(C)C(=O)C(O)c2ccc(Cl)cc2)cs1 (stereo unspecified)
unitAbbreviation: %
INHIBITION: -15.6

Consider the additional compound presented here.
Looking for the measured INHIBITION of C=c1occc1=C1NC(c2cccc(CN3CCOCC3)c2)=NO1 , can you help?
-2.69

* * *

Test system: Plasmodium berghei
testMethodNotes: Screen against P. berghei liver stage (PbLuc), transformed with Luciferase, at 10uM
Format: functional, HepG2
measurementParameters: tested at 10 uM
The whole screen tested about 69,000 compounds, of which about 8,600 (12%) showed an effect of 50% or more. This is one part of a sample in which strong results are shown more often than they occur.
metric: INHIBITION (%)
Answer format: numeric, % implied, no suffix.

molecule: CC(=O)N1CCCC2(C1)CN(c1nncs1)CCO2 (configuration not stated)
studySystem: Plasmodium berghei
recordedValue: 34

molecule: COC1CN(CCO)S(=O)(=O)c2ccccc21 (configuration not stated)
studySystem: Plasmodium berghei
recordedValue: 35.1

molecule: CC(C(=O)N1CCCN(Cc2cnn(C)c2)CC1)n1ccnc1 (configuration not stated)
studySystem: Plasmodium berghei
recordedValue: 48.1

molecule: Cc1nn(CN(CC2CCOC2)C2CC2)c(=O)c2ccccc12 (configuration not stated)
studySystem: Plasmodium berghei
recordedValue: 8.86

molecule: O=C1CCC2(CCN(Cc3ccc(F)cc3)CC2)N1CCN1CCCC1
studySystem: Plasmodium berghei
recordedValue: -22.1

molecule: Cc1ccc(NC(=O)[C@H]2C[C@H](C(=O)O)CN(CC(C)C)C2)cn1
studySystem: Plasmodium berghei
recordedValue: 11.2

molecule: COc1cccc(C2=CCN(CCN3CCOC3=O)CC2)c1
studySystem: Plasmodium berghei
recordedValue: 9.37

molecule: CCN(CCn1c(=O)oc2ccccc21)CC1CCOCC1
studySystem: Plasmodium berghei
recordedValue: 64.9

molecule: Cc1ccc(C(=O)N(C)Cc2cscn2)c(=O)[nH]1
studySystem: Plasmodium berghei
recordedValue: 15

molecule: Cc1cccc(N2CCCC3(C2)CN(c2nncs2)CCO3)c1 (configuration not stated)
studySystem: Plasmodium berghei
recordedValue: 38.5

I have this molecule here, CN1CCN(CCOc2ccc(NC(=O)c3ccncc3)cc2)CC1 , and I need its recorded INHIBITION.
27

Same read-out for O=c1oc2ccccc2n1CCN(CC1CCOC1)C1CC1 (configuration not stated) ?
51.3

* * *

System: Plasmodium berghei
testMethodNotes: Screen against P. berghei liver stage (PbLuc), transformed with Luciferase, at 10uM
Assay type: functional, HepG2
measurementParameters: tested at 10 uM
Hit rate of the full screen: of about 69,000 compounds, about 8,600 (12%) showed an effect of 50% or more. For the sample, strong results were picked, then their nearest neighbours and some compounds at random.
Mark false (0) for INHIBITION values under 20%, and true (1) for everything at or above.

Take a look at these entries with their results.
molecule: CCc1nnc2n1CCN(C(=O)CN(C)C1CC1)C2
category: true (1)

molecule: OCC1CCCN1c1cc(NCc2cccs2)ncn1 (centres undefined)
category: true (1)

molecule: Cc1cccc(Nc2cc(C)nc(C3CCN(C(C)C)C3)n2)n1 (centres undefined)
category: true (1)

molecule: Cc1cc(-c2ccc(C(=O)O)cc2)nc(C2CCN(C(C)C)CC2)n1
category: false (0)

molecule: O=C1CCCCCN1Cc1nc(C2(c3ccc(F)cc3)CCOC2)no1 (centres undefined)
category: false (0)

molecule: CCN(C)[C@H]1CN(C(=O)c2cccc(N3CCS(=O)(=O)CC3)c2)C[C@@H]1O
category: false (0)

INHIBITION >= 20% for O=C(c1nc(N2CCCC2)ncc1Cl)N1CCN(Cc2ccsc2)CC1 ?
true (1)

Also, COC[C@]1(O)CCN(c2cc(N3CCOCC3)ncn2)CC1(C)C please.
true (1)

Here is the next molecule: Cc1cc(-c2cccc(C(=O)O)c2)nc(C2CCN(C(C)C)CC2)n1
true (1)

What do you get for CCc1ccc(Cn2nccc2NC(=O)C2CCS(=O)(=O)C2)cc1 (centres undefined) ?
false (0)

Now consider CCc1nnc2n1CCN(C(=O)c1ccc(-c3ccco3)nc1C)C2 and answer again.
true (1)

* * *

System: Plasmodium berghei
testMethodNotes: Screen against P. berghei liver stage (PbLuc), transformed with Luciferase, at 10uM
Assay type: functional, HepG2
measurementParameters: tested at 10 uM
In all, about 69,000 compounds went through this assay and about 8,600 (12%) showed an effect of 50% or more. The list comes from a sample in which strong results are over-represented; it also holds close analogues and randomly drawn compounds.
# INHIBITION per record follows

compound: O=C(CCc1ccsc1)NS(=O)(=O)Cc1ccon1
INHIBITION: 55.4%

compound: COc1ccc(C(=O)NCc2ccon2)cc1F
INHIBITION: 11.6%

What measured INHIBITION goes with Cc1ccc(S(=O)(=O)NC(=O)CCc2ccco2)cc1N(C)C ?
-18.9%

Same question, Cc1csc(CNc2cnc3c(c2)c(C)nn3C)n1 this time
16%

Try COCCN1CCO[C@@H]2CN(C(=O)NCc3cccnc3)CC[C@@H]2C1 next.
29.8%

Let us now turn to Cc1nn(CC(=O)O)c(C)c1NS(=O)(=O)c1cccc2ccccc12
2.97%

Subsequent entry: CCN(CC)Cc1nc(Cc2cccc(C(F)(F)F)c2)no1
26.7%

Same thing, different compound: Cc1noc(C)c1CNCC1(COc2cccnc2)C[C@@H](O)[C@@H](O)C1 (stereo partly specified)
27.5%

* * *

Each entry below lists one item and its recorded INHIBITION value.
Tested on: Plasmodium berghei
testMethodNotes: Screen against P. berghei liver stage (PbLuc), transformed with Luciferase, at 10uM
Format: functional, HepG2
measurementParameters: tested at 10 uM
The campaign covered roughly 69,000 compounds. About 8,600 (12%) showed an effect of 50% or more. The full list was thinned out, with strong results kept by preference.
# number then unit; no other words

compound: Cc1nn(C)c(N(C)C)c1CNCc1cccc(Cn2ccnc2)c1
studySystem: Plasmodium berghei
INHIBITION: -31.5%
//
compound: CC(C)c1cc(NCC2(N(C)C)CCCC2)ncn1
studySystem: Plasmodium berghei
INHIBITION: 49.9%
//
compound: COc1cccc(-c2nc(CNCCn3cccn3)cs2)c1
studySystem: Plasmodium berghei
INHIBITION: 31.8%

Fill blank: measured INHIBITION of the compound CCN1Cc2ccccc2CC2(CCN(C(=O)N(C)C)CC2)C1=O is ____.
36.5%

Same again, this time with COc1cc(CNCCn2cccn2)c2c(c1)CC(C)O2 (configuration not stated)
75.2%

Next up: COc1cc(CNCCn2cc(C)cn2)c2c(c1)CC(C)O2 (configuration not stated)
75.2%

Moving on to CC(C)c1csc(C(=O)N2CCCC(Cn3cc(CO)nn3)C2)n1 (configuration not stated)
40.3%

Now the compound COc1cc(CNCCC(N)=O)c2c(c1)CC(C)O2 (configuration not stated)
49.4%

Moving on to the next compound: Cc1nnc(NC(=O)NCc2ccc(F)cc2)s1
-162%

Thanks! And CC(C)c1cc(NCC2(CO)CCCC2)ncn1 ?
44.3%

Repeat for the following compound: COc1cc(F)c(-n2cnc(CCNC(C)=O)c2)cc1F
4.1%

# repeat for CNC(=O)C1Cn2ccnc2C2(CCN(Cc3cccnc3)CC2)O1 (configuration not stated)
43.2%

* * *

System: Plasmodium berghei
testMethodNotes: Screen against P. berghei liver stage (PbLuc), transformed with Luciferase, at 10uM
Type: functional, HepG2
measurementParameters: tested at 10 uM
Hit rate of the full screen: of about 69,000 compounds, about 8,600 (12%) showed an effect of 50% or more. Shown is part of a subset that was picked to be rich in strong results.
The entries below come with measured INHIBITION values attached.
Only the number, expressed in %, is required.

Worked examples, 4 compounds total:
compound: Cc1noc(C2CCN(Cn3cc(Br)cn3)CC2)n1
studySystem: Plasmodium berghei
INHIBITION, %: -47
--
compound: CC(C)=CCN1C(=O)[C@@H]2CC[C@H]1CN(C(=O)CCc1nnc(Cl)[nH]1)C2
studySystem: Plasmodium berghei
INHIBITION, %: -15.3
--
compound: CCOc1cccc(C(=O)Nc2ccncc2)c1
studySystem: Plasmodium berghei
INHIBITION, %: 50.3
--
compound: CC(C)Oc1ccc(C(=O)N2CCCCC2Cn2cccn2)cn1 (stereo not given)
studySystem: Plasmodium berghei
INHIBITION, %: -21.645

The record that follows has no INHIBITION shown yet.
Could you tell me which INHIBITION is on file for CCc1noc(C(C)N2CCC(C)CC2)n1 (stereo not given) ?
2.97
